Please respond with reported soluble fraction (log2) for every item in the list.
# assay procedure: soluble fraction after stress (log2 fold change); higher = more stays soluble; pooled small domains, quantitative proteomics;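 further: 20 min heating vs room temperature control held 20 min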
# condition details: stress: 75 degC
Answer with a number only.

Recorded soluble fraction (log2) for HMPLVIIRGIEGVFSSEEKAEAIRKVTDALVSVKGENVRGFAWVVFEEVKSGDWGIGGESITAEKVIMSL , please?
0.158

Endpoint output: soluble fraction (log2) of HMGHEISLNNSRFLKLLNKTKISISNDDTRHYLNGIFLHLTEAHGRQFLTGVATDSHRLSSSSLEID . Value?
-0.206

Would you kindly share the measured soluble fraction (log2) for HMVVNERIKKLRRSLDLTQQEFADRIGVKRNTIANYEIGRNEPIDSVLELIVREFGVSKQWLLDGTGEMF ?
-1.43

Value lookup for soluble fraction (log2); key = HMYEHLKALRESLGMTQAEFGESVGVAKSTYNNYEIGARDPKSDFWIAVAQRYGVTIDYLMGFSDDPKKT
-1.76

Need soluble fraction (log2) of HMDPPYKDKNLHELLLKINNLNILKKDSVIILHRHKKQKEIFPSNFKIIEQKQYGISKIIFLTVL , thanks.
-0.00334

What measured soluble fraction (log2) goes with HMGPTPTSAQLTEAKRLRTKLDDLNPELAERLWSEHREPYTETQYQTLIEKLAAEVQSAEGEIGR ?
0.222

I am curious: what soluble fraction (log2) value has been reported for HMQISLDTKLINLEFSVRANNVFRENQIFTLRDLTSHSKEDLMLMTNFGKTTLYEVNKKLEEHQLKLSQ ?
-2.43

What does the data say about its soluble fraction (log2)? Entry: HMVDFVNVVVPVKANYGGEAVVEFLDERLSEFGTEGIYRIELQGETMENPSPDYSQLKAKYHISEIVDRT
0.0718
